- Experiment Description: chemical genetic growth profiling, strain panel (AID 1159580);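 also: tested at 20 µM; growth read once vehicle control cultures reached saturation at 30 °C; lower values mean less growth of the strain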
- Condition Details: S. cerevisiae deletion strains, growth OD, locus YGR092W, strain DBF2
The whole screen tested about 5,500 compounds, of which about 2,000 (36%) were called active. About 18% were inconclusive and are not listed. Rule as the data show it: active = normalized growth mostly below about 0.91 (no sharp cut-off); inconclusive = no clear call, values can overlap the other calls; inactive = mostly above about 0.92. The list shows a part of the results.
Pick one and only one: active, inactive

COc1ccc(-c2csc(-c3cccnc3)n2)cc1 ... inactive
Clc1ccccc1-c1csc(-c2ccncc2)n1 ... inactive
Brc1ccc(-c2csc(-c3cccnc3)n2)cc1 ... active
CN(C)c1ccc(/C=C/c2ccc3ccccc3[n+]2C)cc1 ... inactive
O=C(Nc1cc(C(F)(F)F)cc(C(F)(F)F)c1)C(Cl)(Cl)Cl ... inactive

Moving on to another compound below.
Q. Test call for this compound, please: "N/C(=N/O)c1ccc(Oc2ccc(C3SCCS3)cc2)c([N+](=O)[O-])c1"
A. inactive
